- MEASURED TARGET: atf-6 (F45E6.2) (Caenorhabditis elegans) (UniProt Q20435)
- Sequence: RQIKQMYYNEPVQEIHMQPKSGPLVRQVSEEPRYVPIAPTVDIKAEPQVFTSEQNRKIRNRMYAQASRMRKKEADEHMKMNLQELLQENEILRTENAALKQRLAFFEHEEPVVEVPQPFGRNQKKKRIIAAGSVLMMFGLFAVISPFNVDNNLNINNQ
ASSAY READOUT: binding signal (PBM E-score (-0.5 to 0.5))
One number for each entry.

INSERT INTO assay_data (sequence_code, observed_result) VALUES
  ('CACGTGGC (double strand) [8-mer CACGTGGC]', 0.464),
  ('ACGTCAGA (double strand) [8-mer ACGTCAGA]', 0.476);

Quick one: give me binding signal (PBM E-score (-0.5 to 0.5)) for each item below, same order please.
1. TGACGTAA (double strand) [8-mer TGACGTAA]
2. ACGTGGCA (double strand) [8-mer ACGTGGCA]
3. CTGACGTA (double strand) [8-mer CTGACGTA]

[0.459, 0.477, 0.474]

----------
- MEASURED TARGET: Y44A6D.3 (Y44A6D.3) (Caenorhabditis elegans)
- Sequence: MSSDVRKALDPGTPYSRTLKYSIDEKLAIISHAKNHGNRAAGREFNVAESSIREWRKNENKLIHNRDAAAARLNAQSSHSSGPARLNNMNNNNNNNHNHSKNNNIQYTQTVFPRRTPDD
ASSAY READOUT: binding signal (PBM E-score (-0.5 to 0.5))
Answers are plain numbers.

Example sequences with recorded binding signal (PBM E-score (-0.5 to 0.5)):
INSERT INTO measurements (sequence_code, observed_result) VALUES
  ('TCCGCGCA (double strand) [8-mer TCCGCGCA]', 0.495),
  ('GCTGCGCA (double strand) [8-mer GCTGCGCA]', 0.494),
  ('CCTGCGCA (double strand) [8-mer CCTGCGCA]', 0.493);

Quick one: give me binding signal (PBM E-score (-0.5 to 0.5)) for each item below, same order please.
1. ATGCGCGG (double strand) [8-mer ATGCGCGG]
2. CCGCGCAG (double strand) [8-mer CCGCGCAG]
3. ATGCGCAG (double strand) [8-mer ATGCGCAG]

0.494
0.495
0.493

----------
Can you tell me binding signal (PBM E-score (-0.5 to 0.5)) for the items I'm about to list?
- MEASURED TARGET: elt-7 (C18G1.2) (Caenorhabditis elegans) (UniProt O61924)
- Sequence: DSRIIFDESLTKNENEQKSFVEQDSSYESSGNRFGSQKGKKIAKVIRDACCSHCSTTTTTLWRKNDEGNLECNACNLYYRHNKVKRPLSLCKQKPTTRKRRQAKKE
Answers are plain numbers.

Example sequences with recorded binding signal (PBM E-score (-0.5 to 0.5)):
INSERT INTO measurements (sequence_code, observed_result) VALUES
  ('CGTTATCA (double strand) [8-mer CGTTATCA]', 0.478),
  ('ATGATAAG (double strand) [8-mer ATGATAAG]', 0.457),
  ('TATGATAA (double strand) [8-mer TATGATAA]', 0.457);

Quick one: give me binding signal (PBM E-score (-0.5 to 0.5)) for each item below, same order please.
1. GCTGATAA (double strand) [8-mer GCTGATAA]
2. CTGATAAG (double strand) [8-mer CTGATAAG]
3. TGATAACA (double strand) [8-mer TGATAACA]
4. CCTTATCA (double strand) [8-mer CCTTATCA]
5. CTGATAAC (double strand) [8-mer CTGATAAC]
6. ACTGATAA (double strand) [8-mer ACTGATAA]

[0.471, 0.472, 0.458, 0.469, 0.467, 0.476]
